Reported Binding level (RU) values follow for various binders
- system under test: T1, recombinant human VEGF165 (human, UniProt P15692-4 27-191)
- T1 construct: also called hVEGF165; rhVEGF165
- T1 sequence (P15692 other isoform, or with tags, fused parts or gaps limits assumed): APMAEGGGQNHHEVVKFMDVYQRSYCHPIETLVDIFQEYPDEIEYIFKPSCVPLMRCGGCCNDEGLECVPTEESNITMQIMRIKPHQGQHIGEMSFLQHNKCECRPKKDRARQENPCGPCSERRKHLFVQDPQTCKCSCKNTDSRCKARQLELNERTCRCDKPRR
- assay summary: Biacore, periplasmic extract on hVEGF165 chip

# binder, Binding level (RU)
rows = [
    ("VEGFBII23D11 (VHH, periplasmic extract) VHH: EVQLVESGGGLVQPGDSLRLSCAFSGRTFSSYSMAWFRQAQGKEREFVVAISSGGFIYDAVSLEGRFTISRDNTKNTVYLQTPSLKPEDTAVYYCAASRAYGSSRLRLADTYDYWGQGTQVTVSS", 510),
    ("VEGFBII40F02 (VHH, periplasmic extract) VHH: EVQLVESGGGLVQPGDSLKLSCAFSGRTFSSYSMAWFRQAQGKEREFVVAISSGGFIYDAVSLEGRFTISRDNTKNTVYLQTPSLKPEGTAVYYCAASRAYGSSRLRLADTYDYWGQGTQVTVSS", 258),
    ("VEGFBII60A09 (VHH, periplasmic extract) VHH: EVQLVESGGGLVQPGDSLKLSCAFSGRTFSSYSMGWFRQAQGKEREFVVAISSSGGYIYDSVSLEGRFTISRDNTRNTVYLQTPSLKPEDTADYYCAASRAYGSSRLRLADTYDYWGQGTQVTVSS", 106),
    ("VEGFBII23A09 (VHH, periplasmic extract) VHH: EVQLVESGGGLVQPGDSLKLSCAFSGRTFGSYSMGWFRQAQGKEREFVVAISSSGGYIYDSVSLEGRFTISRDNSKNTVYLQTPSLKPEDTAVYYCAASRAYGSSRLRLPDTYDYWGQGTQVTVSS", 247),
]
